- Test system: COLO 205 colon
- Measurement Description: NCI-60 one-dose screen, 48 h
- Test Conditions: 10 µM unless noted
This is part of a sample that, as a whole, favours compounds with a hit. Of some 83,000 tested, about 20% had one in any assay. Calls of active or inactive are those of the source. Rule for the calls: active = growth percent below 10; inactive = the rest.
Give one outcome, nothing more. List: active, inactive

Worked examples, 5 compounds total:
INSERT INTO results (compound, discrete_label) VALUES
  ('C=C1CCC2C3(C)COC(c4ccccc4)OC3CCC2(C)C1/C=C/C1=CCOC1=O (stereo unspecified)', 'inactive'),
  ('COc1ccc(Cn2cc3c(c2-c2cc(OC)c(OC)c(OC)c2)CCc2cnoc2-3)cc1', 'active'),
  ('COc1ccc(CN2CCc3c(Sc4ccccc4)nc(N)nc3C2=O)c(OC)c1', 'inactive'),
  ('N/C(=N\C(N)=N\c1nc2ccccc2s1)c1ccncc1', 'inactive'),
  ('Cn1cc(-c2cnc3ccc(NC(=O)Nc4ccc(F)c(Br)c4)cc3n2)cn1', 'active');

How did this test come out for CCCCN(CCCC)c1ccc(C(=N)c2ccc(N(CCCC)CCCC)cc2)cc1 ?
active

So what was the verdict on Nc1ncnc2c1c(-c1ccc(Oc3ccccc3)cc1)nn2C[C@@H]1SSC[C@@H]1O in this test?
inactive

Could you kindly confirm the outcome this assay logged for O=C(NCCNc1nccc(-n2ccc3cccnc32)n1)c1ccc(C(F)(F)F)cc1 ?
inactive

Tell me the assay call for COc1ccc(C(=O)NC(=O)Nc2cc3c(cc2F)/C(=C/c2[nH]c(C)c(CCC(=O)O)c2C)C(=O)N3)c(F)c1 please.
inactive

How was COc1ccc(-c2c(N)n[nH]c2-c2cc(OC)c3c(c2)OCCO3)cc1 classified in this test?
inactive

Hi, do you know how COc1ccc(C(=O)n2nc(/C=C/c3ccc(O)c(OC)c3)cc2/C=C/c2ccc(O)c(OC)c2)cc1 came out in this test?
active

Could you please tell me the result logged for OB(O)c1cccc(-c2nc3ccc4[nH]ncc4c3c3c2CCCC3)c1F in this assay?
inactive

# fetch the recorded call for CCCCN(CCCC)C(=O)CC here
inactive

Hello, I am checking results. What call was entered for COc1cc2c(=O)n(C3CCCCCC3)c3c4cc[nH]c4ncc3c2cc1OC ?
inactive

Would you mind telling me which call this test gave COc1ccc(Nc2nn3c(-c4ccccc4)cc(-c4ccccc4)nc3c2C(N)=O)c(OC)c1 ?
inactive

Please indicate how the test categorized O=C(Nc1ccc2c(c1)OCO2)C(=O)c1c[nH]c2cc(F)ccc12 .
inactive

Test call, this compound: CC1=C(C#N)C(=O)NC(C)C1 (stereo unspecified)
inactive

What is the recorded call for this compound in the test? Clc1cc(Cl)cc(-c2ccc(-c3ccc(/C=N/NC4=NCCN4)cc3)s2)c1
active

How did this test come out for Cc1ccc(C(=O)C2=Cc3cc4ccccc4n3Cc3cnnn32)cc1 ?
inactive

Given COc1cc(-c2nn(-c3cccc(NC(=O)c4ccc(Cl)c(C(F)(F)F)c4)c3)cc2-c2ccncc2)ccc1Cl , state the outcome it received in this test.
inactive

# lookup: test call for COc1ccc(-c2ccc(-c3ccc(C(=N)N)s3)s2)cc1Cl
active

Measured values drawn from PubChem BioAssay (NCI) for this set.
